- Tested on: Prunus dulcis
- Assay Procedure: Inhibition of almond beta glucosidase at 1 mM
The source made the active and inactive calls. The rule behind the calls is not given here.
Observable: inhibition

# count of solved cases: 4
1. C[C@@H]1NN[C@@H](CNC(=O)[C@@H](N)CCCCN)[C@H](O)[C@@H]1O = inactive
2. C[C@H]1NN[C@@H](CNC(=O)c2ccc(-c3ccccc3)cc2)[C@H](O)[C@@H]1O = inactive
3. C[C@@H]1[C@@H](O)[C@@H](O)[C@H](CO)NN1C(=O)OCc1ccccc1 = inactive
4. C[C@H]1NN[C@@H](CN)[C@H](O)[C@@H]1O = inactive

Given C[C@@H]1NN[C@@H](CNC(=O)[C@@H](N)Cc2ccccc2)[C@H](O)[C@@H]1O , state its recorded inhibition. inactive

Moving on to the next compound: C[C@H]1[C@@H](O)[C@@H](O)[C@H](CN)NN1C(=O)OCc1ccccc1 inactive

Moving on to the next compound: C[C@@H]1[C@@H](O)[C@@H](O)[C@H](CN)NN1C(=O)OCc1ccccc1 inactive

Moving on to the next compound: C[C@@H]1NN[C@@H](CO)[C@H](O)[C@@H]1O inactive

Moving on to the next compound: CCCCCCCCCCCC(=O)NC[C@@H]1NN(C(=O)OCc2ccccc2)[C@@H](C)[C@@H](O)[C@H]1O inactive

Moving on to the next compound: C[C@H]1[C@@H](O)[C@@H](O)[C@H](CO)NN1C(=O)OCc1ccccc1 inactive

###

Listing: inhibition of selected compounds
- Experimental Target: Tissue alpha-L-fucosidase (Bos taurus)
- Assay Procedure: Inhibition of bovine kidney alpha L-fucosidase at 1 mM

1) C[C@H]1NN[C@@H](CO)[C@H](O)[C@@H]1O = 17%

Given C[C@H]1NN[C@@H](CNC(=O)c2ccc(-c3ccccc3)cc2)[C@H](O)[C@@H]1O , state its recorded inhibition. 53%

Moving on to the next compound: C[C@H]1[C@@H](O)[C@@H](O)[C@H](CO)NN1C(=O)OCc1ccccc1 35%

Moving on to the next compound: C[C@H]1NN[C@@H](CN)[C@H](O)[C@@H]1O 53%

Moving on to the next compound: C[C@@H]1NN[C@@H](CO)[C@H](O)[C@@H]1O 97%

Moving on to the next compound: C[C@@H]1[C@@H](O)[C@@H](O)[C@H](CNC(=O)[C@@H](N)Cc2ccccc2)NN1C(=O)OCc1ccccc1 16%

Moving on to the next compound: C[C@@H]1[C@@H](O)[C@@H](O)[C@H](CO)NN1C(=O)OCc1ccccc1 27%

###

- Experimental Target: Beta-galactosidase (Escherichia coli K-12)
- Assay Procedure: Inhibition of Escherichia coli beta galactosidase at 1 mM
The source made the active and inactive calls. The calls are words filed in the database; no cut-off is given here.
Observable: inhibition

1. C[C@H]1NN[C@@H](CO)[C@H](O)[C@@H]1O = inactive
2. C[C@H]1NN[C@@H](CN)[C@H](O)[C@@H]1O = inactive
3. C[C@H]1[C@@H](O)[C@@H](O)[C@H](CNC(=O)[C@@H](N)CCCCN)NN1C(=O)OCc1ccccc1 = inactive
4. C[C@@H]1[C@@H](O)[C@@H](O)[C@H](CN)NN1C(=O)OCc1ccccc1 = inactive
5. CCCCCCCCCCCC(=O)NC[C@@H]1NN[C@@H](C)[C@@H](O)[C@H]1O = inactive
6. C[C@@H]1NN[C@@H](CNC(=O)[C@@H](N)Cc2ccccc2)[C@H](O)[C@@H]1O = inactive
7. C[C@@H]1[C@@H](O)[C@@H](O)[C@H](CNC(=O)[C@@H](N)Cc2ccccc2)NN1C(=O)OCc1ccccc1 = inactive
8. C[C@@H]1NN[C@@H](CO)[C@H](O)[C@@H]1O = inactive

Given C[C@H]1NN[C@@H](CNC(=O)[C@@H](N)Cc2ccccc2)[C@H](O)[C@@H]1O , state its recorded inhibition. inactive

###

- Experimental Target: Tissue alpha-L-fucosidase (Bos taurus, UniProt Q2KIM0)
Observable: Ki (nM)

(A) C[C@@H]1NN[C@@H](CO)[C@H](O)[C@@H]1O
(B) C[C@@H]1NN[C@@H](CNC(=O)c2ccc(-c3ccccc3)cc2)[C@H](O)[C@@H]1O
In the pair A and B , the larger recorded Ki belongs to which? Returns: label corresponding to the selected item. A

###

- Experimental Target: Tissue alpha-L-fucosidase (Bos taurus, UniProt Q2KIM0)
- Sequence (Q2KIM0 whole entry): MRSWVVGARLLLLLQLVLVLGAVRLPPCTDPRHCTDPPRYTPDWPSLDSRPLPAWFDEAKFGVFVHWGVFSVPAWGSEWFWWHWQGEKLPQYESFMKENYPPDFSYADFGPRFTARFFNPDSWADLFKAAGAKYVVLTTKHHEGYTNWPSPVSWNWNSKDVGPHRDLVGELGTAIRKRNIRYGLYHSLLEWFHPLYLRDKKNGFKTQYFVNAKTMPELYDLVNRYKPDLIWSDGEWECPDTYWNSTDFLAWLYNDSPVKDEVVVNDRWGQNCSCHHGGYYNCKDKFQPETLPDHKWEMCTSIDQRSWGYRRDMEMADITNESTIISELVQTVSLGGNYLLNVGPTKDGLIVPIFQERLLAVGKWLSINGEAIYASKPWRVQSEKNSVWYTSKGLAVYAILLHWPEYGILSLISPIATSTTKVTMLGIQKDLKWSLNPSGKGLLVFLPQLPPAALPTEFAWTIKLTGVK
pIC50: −log10 of the molar value.
Observable: pIC50

(a) C[C@@H]1NN[C@@H](CNC(=O)[C@@H](N)CCCCN)[C@H](O)[C@@H]1O
(b) C[C@@H]1NN[C@@H](CNC(=O)[C@@H](N)Cc2ccccc2)[C@H](O)[C@@H]1O
In the pair a and b , the larger recorded pIC50 belongs to which? Returns: label corresponding to the selected item. b

###

- Experimental Target: Tissue alpha-L-fucosidase (Bos taurus)
- Assay Procedure: Inhibition of bovine kidney alpha L-fucosidase at 1 mM
Observable: inhibition (%)

# count of solved cases: 2
1. CCCCCCCCCCCC(=O)NC[C@@H]1NN[C@H](C)[C@@H](O)[C@H]1O = 40
2. CCCCCCCCCCCC(=O)NC[C@@H]1NN[C@@H](C)[C@@H](O)[C@H]1O = 70

(I) C[C@@H]1NN[C@@H](CN)[C@H](O)[C@@H]1O
(II) C[C@@H]1NN[C@@H](CNC(=O)[C@@H](N)CCCCN)[C@H](O)[C@@H]1O
Lab note: check whether I or II has the lower measured inhibition. Returns: label corresponding to the selected item. I
(I: 44%, II: 77%)
